# method.summary: GC/MS of blood plasma sample: time from blood collection to cooling of blood (Table B)
# Assay type: physicochemical, human
# Design: key: detection intensity relative to 1 at cooling time ≤1 min
# experimental.conditions: detection intensity relative to 1 at 1 minute or less, blood collection to cooling 5 minutes
assay.metric: Rate of increase or decrease

The following compounds have reported results that may help.
compound="CC(C)CC(O)C(=O)O (stereo not shown) [2-Hydroxyisocaproic acid]" assay_metric="Rate of increase or decrease" numeric_value=1.31
compound="O=c1ccn([C@H]2C[C@H](O)[C@@H](CO)O2)c(=O)[nH]1 [2′-Deoxyuridine]" assay_metric="Rate of increase or decrease" numeric_value=0.68
compound="Oc1ccccn1 [2-Hydroxypyridine]" assay_metric="Rate of increase or decrease" numeric_value=0.59
compound="O=C(O)CCCCCCCC(=O)O [Azelaic acid]" assay_metric="Rate of increase or decrease" numeric_value=0.67
compound="OC[C@@H](O)[C@@H](O[C@@H]1O[C@H](CO)[C@H](O)[C@H](O)[C@H]1O)[C@H](O)[C@@H](O)CO [Lactitol]" assay_metric="Rate of increase or decrease" numeric_value=0.67
compound="Oc1ccc(O)cc1 [Hydroquinone]" assay_metric="Rate of increase or decrease" numeric_value=0.66
compound="O=C(O)CO [Glycolic acid]" assay_metric="Rate of increase or decrease" numeric_value=0.61

I = OC[C@H]1O[C@@H](O[C@H]2[C@H](O)[C@@H](O)C(O)O[C@@H]2CO)[C@H](O)[C@@H](O)[C@H]1O (stereo partly shown) [Lactose]
II = CC(C)(CO)[C@@H](O)C(=O)NCCC(=O)O [Pantothenic acid]
III = O=CC(=O)O [Glyoxylic acid]
I would appreciate it if you could sort these 3 compounds by Rate of increase or decrease, starting from the smallest number. Your reply should list the labels following the order given in the request.
I, III, II
(I: 0.56, III: 1.37, II: 3.56)

* * *

# method.summary: GC/MS of blood plasma sample: time from blood collection to cooling of blood (Table B)
# Assay type: physicochemical, human
# experimental.conditions: different from individual to individual, individuals with decrease, relative to 1 at 1 minute or less, collection to cooling 5 minutes
assay.metric: Rate of increase or decrease (second value, decrease)

compound="NC(=O)NC1NC(=O)NC1=O (stereo not drawn) [Allantoin]" numeric_value=0.57

P = OC[C@H]1O[C@@](CO)(O[C@H]2O[C@H](CO)[C@@H](O)[C@H](O)[C@H]2O)[C@@H](O)[C@@H]1O [Sucrose]
Q = O=C(O)c1cccnc1C(=O)O [Quinolinic acid]
For the two items P and Q , which reports the higher Rate of increase or decrease (second value, decrease) value? Answer format: the label of the selected item.
P
(P: 0.69, Q: 0.41)

* * *

# method.summary: LC/MS of serum sample: number of times of freezing and thawing (Table M)
# Assay type: physicochemical, human
# experimental.conditions: serum sample, LC/MS; detection intensity vs 2 times of freezing and thawing
assay.metric: Increase or decrease

compound="Nc1ccccc1C(=O)CC(N)C(=O)O (centres unmarked)" result=Decrease
compound=NC(=O)NCCC[C@H](N)C(=O)O result=Decrease

* * *

# method.summary: LC/MS of serum sample: time from blood collection to centrifugation (Table J)
# Type: physicochemical, human
# experimental.conditions: after 12 hours from blood collection to centrifugation; detection intensity relative to 1 at 15 minutes
assay.metric: Rate of increase or decrease

input_smiles=N[C@@H](Cc1c[nH]cn1)C(=O)O assay_metric="Rate of increase or decrease" numeric_value=1.46
input_smiles=CC(C)C[C@H](N)C(=O)O assay_metric="Rate of increase or decrease" numeric_value=1.35
input_smiles=NC(=O)C[C@H](N)C(=O)O assay_metric="Rate of increase or decrease" numeric_value=1.40
input_smiles=NCC(=O)O assay_metric="Rate of increase or decrease" numeric_value=1.50
input_smiles=CC[C@H](C)[C@H](N)C(=O)O assay_metric="Rate of increase or decrease" numeric_value=1.34
input_smiles=CC(C)(CO)[C@@H](O)C(=O)NCCC(=O)O assay_metric="Rate of increase or decrease" numeric_value=1.43
input_smiles=NCCc1ccc(O)c(O)c1 assay_metric="Rate of increase or decrease" numeric_value=1.39

The reported numbers originate from patent US20220146526A1.
